# TEST_METHOD_NOTES: Half life in BALB/c mouse at 2 mg/kg, iv
# Type: ADME, organism-based
# Set-up: dose 2 mg/kg, route intravenous
# TEST_CONTEXT: in vivo
RESULT_TYPE: half-life
Record the result as number plus unit.

Any idea what half-life was measured for CCNC(=O)Nc1ccc(Oc2ncnc(N)c2/C=N/OC)cc1Cl ?
168 min

====

# TEST_METHOD_NOTES: Cmax in rat at 2 mg/kg, iv
# Type: ADME, organism-based
# Set-up: dose 2 mg/kg, route intravenous
# TEST_CONTEXT: in vivo
RESULT_TYPE: Cmax (ng/mL)
Kindly provide the numeric value in ng/mL only, without the unit symbol.

Any idea what Cmax was measured for CCNC(=O)Nc1ccc(Oc2ncnc(N)c2/C=N/OC)cc1Cl ?
5400
